# reported IC50; entries follow
molecular target: human recombinant TRPV1 (Homo sapiens (Human), UniProt Q8NER1); experiment: TRPV1 pH-Based Assay (Protocol 2, Ca2+ response in TRPV1/CHO cells, Fura-2); assay type: cell-based
Sequence (Q8NER1 whole entry): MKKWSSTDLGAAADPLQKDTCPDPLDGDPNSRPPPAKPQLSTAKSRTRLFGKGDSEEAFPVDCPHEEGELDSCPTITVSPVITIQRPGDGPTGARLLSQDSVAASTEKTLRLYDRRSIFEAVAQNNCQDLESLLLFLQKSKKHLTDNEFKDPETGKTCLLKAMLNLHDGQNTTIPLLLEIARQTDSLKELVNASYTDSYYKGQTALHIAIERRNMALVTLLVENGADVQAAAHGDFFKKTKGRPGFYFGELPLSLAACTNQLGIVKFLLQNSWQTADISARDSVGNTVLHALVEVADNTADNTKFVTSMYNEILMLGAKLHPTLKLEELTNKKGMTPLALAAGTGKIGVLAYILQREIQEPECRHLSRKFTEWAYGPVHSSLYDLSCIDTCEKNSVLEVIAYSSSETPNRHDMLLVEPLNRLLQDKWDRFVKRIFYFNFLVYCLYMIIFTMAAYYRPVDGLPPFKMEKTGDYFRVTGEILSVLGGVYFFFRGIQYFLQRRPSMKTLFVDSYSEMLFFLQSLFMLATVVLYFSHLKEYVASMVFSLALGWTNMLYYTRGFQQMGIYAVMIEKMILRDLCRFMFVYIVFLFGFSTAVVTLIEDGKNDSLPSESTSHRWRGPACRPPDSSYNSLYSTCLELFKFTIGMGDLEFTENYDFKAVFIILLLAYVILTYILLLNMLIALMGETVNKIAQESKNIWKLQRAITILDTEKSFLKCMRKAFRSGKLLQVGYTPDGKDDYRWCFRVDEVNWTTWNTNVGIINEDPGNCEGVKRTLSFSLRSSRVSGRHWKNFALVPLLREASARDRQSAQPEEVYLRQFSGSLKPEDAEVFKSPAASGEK
property_measured: IC50

{"smiles_str": "O=C(Nc1nc2cc(F)c(F)cc2s1)N1CCN(c2ncc(C[C@@H](O)CO)cc2F)CC1", "result": "≤ 50 nM"}
{"smiles_str": "O=C(Nc1nc2cc(F)c(F)cc2s1)N1CCN(c2ncc(C[C@H](O)CO)cc2F)CC1", "result": "≤ 50 nM"}

----------
biological target: human recombinant TRPV1 (Homo sapiens (Human)); assay: TRPV1 pH-Based Assay (Protocol 2, Ca2+ response in TRPV1/CHO cells, Fura-2); format: cell-based; details: TRPV1/CHO cells, pH 5.0-5.1; read-out: IC50 value by the pH-Based Assay
pIC50: −log10 of the molar value.

{"smiles_str": "O=C(Nc1nc2ccc(Cl)cc2s1)N1CCN(c2ncc(C[C@H](O)CO)cc2F)CC1", "pIC50": "≥ 7.30"}
{"smiles_str": "CC1(C)CN(c2ncc(C[C@H](O)CO)cc2F)CCN1C(=O)Nc1nc2ccc(F)cc2s1", "pIC50": "≥ 7.30"}
{"smiles_str": "Cc1ccc2nc(NC(=O)N3CCN(c4ncc(C[C@H](O)CO)cc4F)[C@@H](C)C3)sc2c1", "pIC50": "≥ 7.30"}
{"smiles_str": "Cc1cc2nc(NC(=O)N3CCN(c4ncc(C[C@@H](O)CO)cc4F)CC3)sc2cc1C", "pIC50": "≥ 7.30"}
{"smiles_str": "Cc1ccc2nc(NC(=O)N3CCN(c4ncc(C[C@@H](O)CO)cc4Cl)CC3)sc2c1", "pIC50": "≥ 7.30"}
{"smiles_str": "O=C(Nc1nc2ccc(Cl)cc2s1)N1CCN(c2ncc(C[C@H](O)CO)cc2Cl)CC1", "pIC50": "≥ 7.30"}
{"smiles_str": "Cc1cc(C[C@@H](O)CO)cnc1N1CCN(C(=O)Nc2nc3ccc(F)cc3s2)CC1", "pIC50": "≥ 7.30"}
{"smiles_str": "Cc1cc(NC(=O)N2CCC(F)(c3ncc(C[C@H](O)CO)cc3Cl)CC2)ccc1C(F)(F)F", "pIC50": "≥ 7.30"}
{"smiles_str": "Cc1ccc2nc(NC(=O)N3CCN(c4ncc(C[C@@H](O)CO)cc4F)CC3)sc2c1", "pIC50": "≥ 7.30"}
{"smiles_str": "CC1(C)CN(c2ncc(C[C@@H](O)CO)cc2F)CCN1C(=O)Nc1nc2ccc(F)cc2s1", "pIC50": "≥ 7.30"}
{"smiles_str": "O=C(Nc1ccc(C(F)(F)F)cn1)N1CC=C(c2ncc(C[C@@H](O)CO)cc2Cl)CC1", "pIC50": "≥ 7.30"}
{"smiles_str": "Cc1cc(NC(=O)N2CCC(F)(c3ncc(C[C@H](O)CO)cc3Cl)CC2)ccc1OC(F)(F)F", "pIC50": "≥ 7.30"}
{"smiles_str": "Cc1cc(NC(=O)N2CC=C(c3ncc(C[C@H](O)CO)cc3F)CC2)ccc1C(F)(F)F", "pIC50": "≥ 7.30"}
{"smiles_str": "Cc1ccc2nc(NC(=O)N3CCN(c4ncc(C[C@@H](O)CO)cc4F)C[C@@H]3C)sc2c1", "pIC50": "≥ 7.30"}
{"smiles_str": "C[C@H]1CN(c2ncc(C[C@H](O)CO)cc2F)CCN1C(=O)Nc1nc2ccc(Cl)cc2s1", "pIC50": "≥ 7.30"}
{"smiles_str": "C[C@H]1CN(c2ncc(C[C@@H](O)CO)cc2Cl)CCN1C(=O)Nc1nc2ccc(F)cc2s1", "pIC50": "≥ 7.30"}
{"smiles_str": "C[C@H]1CN(c2ncc(C[C@@H](O)CO)cc2F)CCN1C(=O)Nc1nc2cc(F)c(F)cc2s1", "pIC50": "≥ 7.30"}
{"smiles_str": "C[C@H]1CN(c2ncc(C[C@@H](O)CO)cc2C(F)(F)F)CCN1C(=O)Nc1nc2ccc(F)cc2s1", "pIC50": "≥ 7.30"}
{"smiles_str": "Cc1cc(NC(=O)N2CCC(F)(c3ncc(C[C@@H](O)CO)cc3Cl)CC2)ccc1C(F)(F)F", "pIC50": "≥ 7.30"}
{"smiles_str": "Cc1cc(NC(=O)N2CC=C(c3ncc(C(F)(F)[C@@H](O)CO)cc3Cl)CC2)ccc1C(F)(F)F", "pIC50": "≥ 7.30"}
{"smiles_str": "Cc1cc(NC(=O)N2CCC(F)(c3ncc(C[C@@H](O)CO)cc3Cl)CC2)ccc1OC(F)(F)F", "pIC50": "≥ 7.30"}
{"smiles_str": "C[C@H]1CN(c2ncc(C[C@H](O)CO)cc2F)CCN1C(=O)Nc1nc2ccc(F)cc2s1", "pIC50": "≥ 7.30"}
{"smiles_str": "Cc1ccc2nc(NC(=O)N3CCN(c4ncc(C[C@@H](O)CO)cc4F)[C@@H](C)C3)sc2c1", "pIC50": "≥ 7.30"}
{"smiles_str": "O=C(Nc1nc2ccc(F)cc2s1)N1CCN(c2ncc(C[C@H](O)CO)cc2F)CC1", "pIC50": "≥ 7.30"}
{"smiles_str": "C[C@@H]1CN(c2ncc(C[C@H](O)CO)cc2F)C[C@H](C)N1C(=O)Nc1nc2ccc(F)cc2s1", "pIC50": "≥ 7.30"}
{"smiles_str": "C[C@H]1CN(c2ncc(C[C@H](O)CO)cc2C(F)(F)F)CCN1C(=O)Nc1nc2ccc(F)cc2s1", "pIC50": "≥ 7.30"}
{"smiles_str": "O=C(Nc1ccc(C(F)(F)F)c(Cl)c1)N1CC=C(c2ncc(C[C@@H](O)CO)cc2F)CC1", "pIC50": "≥ 7.30"}
{"smiles_str": "O=C(Nc1nc2ccc(F)cc2s1)N1CCN(c2ncc(C[C@H](O)CO)cc2Cl)CC1", "pIC50": "≥ 7.30"}
{"smiles_str": "C[C@H]1CN(c2ncc(C[C@@H](O)CO)cc2Cl)CCN1C(=O)Nc1nc2ccccc2s1", "pIC50": "≥ 7.30"}
{"smiles_str": "C[C@H]1CN(C(=O)Nc2nc3cc(F)c(F)cc3s2)CCN1c1ncc(C[C@@H](O)CO)cc1F", "pIC50": "≥ 7.30"}
{"smiles_str": "C[C@@H]1CN(c2ncc(C[C@@H](O)CO)cc2F)CCN1C(=O)Nc1nc2ccc(Cl)cc2s1", "pIC50": "≥ 7.30"}
{"smiles_str": "Cc1cc(NC(=O)N2CCC(F)(c3ncc(C[C@H](O)CO)cc3F)CC2)ccc1OC(F)(F)F", "pIC50": "≥ 7.30"}
{"smiles_str": "O=C(Nc1nc2ccc(Cl)cc2s1)N1CCN(c2ncc(C[C@@H](O)CO)cc2F)CC1", "pIC50": "≥ 7.30"}
